Source listed as ChEMBL document CHEMBL1914352.

# testSystem: Matrix metalloproteinase-14 (Homo sapiens, UniProt P50281)
recordedEndpoint: pIC50
One number for each entry, as −log10 of the molar value.

Fill in pIC50 for CNC(=O)[C@H](Cc1c[nH]c2ccccc12)NC(=O)[C@@H](CC(=O)NO)CC(C)C tested with Matrix metalloproteinase-14 (Homo sapiens, UniProt P50281).
9.39

* * *

# testSystem: UniProt P14780
# Sequence (P14780 whole entry): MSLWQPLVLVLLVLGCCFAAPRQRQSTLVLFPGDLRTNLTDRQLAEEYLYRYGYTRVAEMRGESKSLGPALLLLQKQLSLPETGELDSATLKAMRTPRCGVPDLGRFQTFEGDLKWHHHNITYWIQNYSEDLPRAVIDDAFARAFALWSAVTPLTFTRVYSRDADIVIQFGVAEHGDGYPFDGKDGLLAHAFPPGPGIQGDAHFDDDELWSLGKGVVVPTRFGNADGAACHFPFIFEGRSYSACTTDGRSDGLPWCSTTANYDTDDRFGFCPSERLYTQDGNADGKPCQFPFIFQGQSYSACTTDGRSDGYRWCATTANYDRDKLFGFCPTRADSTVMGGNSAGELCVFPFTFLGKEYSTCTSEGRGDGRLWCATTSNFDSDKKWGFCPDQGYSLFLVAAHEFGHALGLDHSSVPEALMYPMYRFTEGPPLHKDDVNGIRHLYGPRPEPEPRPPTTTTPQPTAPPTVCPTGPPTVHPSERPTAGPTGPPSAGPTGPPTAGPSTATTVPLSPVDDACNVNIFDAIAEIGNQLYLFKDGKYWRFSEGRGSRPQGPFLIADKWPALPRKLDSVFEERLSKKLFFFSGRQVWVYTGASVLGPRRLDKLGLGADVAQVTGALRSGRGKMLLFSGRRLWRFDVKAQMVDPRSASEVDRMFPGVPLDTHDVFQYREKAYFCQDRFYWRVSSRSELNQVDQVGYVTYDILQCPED
recordedEndpoint: pIC50
Give bare numbers, as −log10 of the molar value.

Return pIC50 (reported value) for this compound: [N-]=[N+]=NCc1cc(N=[N+]=[N-])cc(C(=O)Nc2ccc(-c3cc(C(=O)NCCCCCCC(=O)NO)no3)cc2)c1
4.64
